# protocol-description: splicing luciferase reporter signal modulators, primary screen, spliceosome inhibition project, cell-based, HEK293, splice +/- reporter (AID 1101);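 further: HEK293 cells carrying a splicing-competent luciferase reporter gene; test concentration not given here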
# conditions: luminescence, 24 h, higher = more signal, called active from +8 up or from −8 down
Classify by measured z-score: class 1 if it is equal to or exceeds 0.1, class 0 if it is smaller.

stdin: Check if z-score >= 0.1 (inclusive). Item: CCC[C@@H]1[C@@H](Sc2ccccc2)[C@@H](C(=O)O)[C@H](c2ccc(C)cc2)N1S(=O)(=O)c1ccc(C)cc1
stdout: class 0

stdin: How about CCCCNC(=O)c1ccc(C#C[Si](C)(C)C)c(OC(C)=O)c1 ?
stdout: class 0

stdin: What about this compound? O=C1NC(=O)C2C1C=CC(C(O)c1ccc(F)cc1)N2Nc1ccccn1 (centres undefined)
stdout: class 1

stdin: Similarly, Cc1c(NC(=O)/C(C#N)=C/c2ccc(Cl)cc2)c(=O)n(-c2ccccc2)n1C ?
stdout: class 0

stdin: Try CCCCC(=C=CC[C@H](O)c1ccc(OCCO)cc1)C[C@H](O)c1ccccn1 next.
stdout: class 1

stdin: Please give the result for N[C@@H](Cc1ccccc1)Cn1cc(C2(O)CCCCC2)nn1 too.
stdout: class 1

stdin: Cool, now O=C1NC(=O)C2C1C=CC(C(O)c1cccc(O)c1)N2Nc1ccc(Cl)cc1Cl (centres undefined)
stdout: class 1

stdin: Same again, this time with CC(=O)NCCCC[C@@H]1NC(=O)[C@@H]2C[C@H](C(=O)NCCCCCC[N+](C)(C)C)[C@H](c3ccc(O)cc3)N2C1=O
stdout: class 0

stdin: What about this compound? COCCn1c(C(=O)N2CCCC2)cc2c1C[C@H]1CN(C(=O)c3ccccc3)[C@@](Cc3ccccc3)(C(=O)OC)[C@@H]21
stdout: class 0

====

I'd be grateful if you could share measured z-score for these entries.
# protocol-description: HepG2 liver cancer cell viability effects, profiling panel, resazurin fluorescence, 24 h, PK04 Diversity Set (AID 1172); further: test concentration not given here
# conditions: higher = more signal

stdin: I am curious: what z-score value has been reported for Cc1ccccc1C(O)C1C=CC2C(=O)N(c3ccccc3)C(=O)C2N1Nc1ccccc1F (stereo unspecified) ?
stdout: -0.954

stdin: Next compound: C[C@H]1C2[C@H](Cc3ccccc3)NC(=O)[C@]23C(=O)NCC(=O)N2CCC[C@H]2C(=O)NC/C=C\C/C=C/C3[C@@H]2O[C@]12C (stereo partly specified)
stdout: 0.825

stdin: Record: C=CC[C@]1(C(=O)NCCCOC)N=C(c2ccc(OCCCO)cc2)O[C@H]1c1ccccc1
stdout: 0.998

stdin: Now this one: Cc1ccc(F)cc1S(=O)(=O)N[C@@H]1CCN(Cc2ccc3[nH]ccc3c2)C1
stdout: -1.14

stdin: Field entry: C=CCNC(=O)[C@H]1[C@@H]2C(=O)O[C@@H](c3ccccc3)[C@@H](c3ccccc3)N2[C@@H](c2ccccc2OCCO)[C@]12C(=O)N(C(=O)OCCOC)c1ccccc12
stdout: -0.293

stdin: And for O=c1cccc(-c2ccccc2C(F)(F)F)o1 ?
stdout: -0.719

stdin: Proceed to COc1ccc(NC(=O)O[C@H]2[C@H](OC(=O)Nc3ccc4c(c3)OCO4)[C@H](OC(=O)Nc3ccc4c(c3)OCO4)[C@@H](OC)O[C@@H]2CO)cc1
stdout: -0.637

stdin: Same question, CCCC[C@@H]1C[C@H]1[C@@H](NC(=O)c1ccc(C(F)(F)F)cc1)c1ccc(C(=O)OC)cc1 this time
stdout: 1.51

stdin: Next compound up: CCC[C@@H]1[C@@H](Sc2ccccc2)[C@@H](C(=O)O)[C@H](c2ccc(C)cc2)N1S(=O)(=O)c1ccc(C)cc1
stdout: -0.428

stdin: Do the same for CCCCCN1CC=CC23O[C@@H]4C=CCOC(=O)[C@@H]4[C@H]2C(=O)N(CCCCCO)[C@@H]3C1=O (stereo partly specified) please
stdout: 0.773

stdin: Let us now turn to COC(=O)C1=CC(CCCO)=CC(C2CC2)N(Cc2cccc(OC(F)(F)F)c2)C=C1C(=O)OC (stereo unspecified)
stdout: 0.588

stdin: Another compound to look at: C=C(CCCC)C(=O)CC[C@H](OC(C)=O)c1ccccc1OCCO
stdout: -1.32

stdin: Thanks! And C[C@]1(C(=O)NCC(F)(F)F)c2ccccc2C(=O)N(Cc2ccc(OC(F)(F)F)cc2)[C@H]1c1ccc(CO)cc1 ?
stdout: 0.2

stdin: Can you check CCCCC(O)C1C=CC2C(=O)N(C)C(=O)C2N1Nc1ccccc1 (stereo unspecified) next?
stdout: -1.63

stdin: Follow-up entry: C[N+](C)(C)CCCC[C@@H]1NC(=O)[C@H]2C[C@@H](C(=O)NCCCCCNC(=O)CS)[C@@H](c3ccc(O)cc3)N2C1=O
stdout: -0.532

stdin: Please do the same for CCOC(=O)C1=CC[C@@H](c2ccccc2Cl)N(S(=O)(=O)c2ccc(C)cc2)[C@H]1c1cccc(OC)c1 as well.
stdout: -0.18

====

# protocol-description: E. coli acrAB mutant growth effects, primary screen, E. coli filamentation inducers, strain DRC39, OD650, 48 h (AID 1179);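 further: screen aims at cell division blockers that make cells filament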
# conditions: E. coli DRC39 delta-acrAB growth, higher = more signal, called active from +8 up or from −8 down
The source made the active and inactive calls.
Field: z-score. Provide a value for each of the compounds that follow.

stdin: Entry under review: COCCOC(=O)N1C(=O)[C@@]2(c3ccccc31)[C@H](C(N)=O)[C@H]1C(=O)O[C@H](c3ccccc3)[C@H](c3ccccc3)N1[C@@H]2c1ccc(OCCO)cc1 . Reported z-score?
stdout: 0.094 (inactive)

stdin: Now this one: CN(C)CCCC[C@@H]1NC(=O)[C@H]2C[C@@H](C(=O)NCc3ccc(F)cc3)[C@@H](c3ccc(O)cc3)N2C1=O
stdout: 0.182 (inactive)

stdin: And for O=C1OCCC/C=C\[C@H]2OC34C=CCN(Cc5ccccc5)C(=O)[C@H]3N(CCCCCO)C(=O)[C@@H]4C12 (some centres not stated) ?
stdout: 0.775 (inactive)

stdin: Then what about the compound COCCOC(=O)N1C(=O)[C@@]2(c3cc(C#CC4=CCCCC4)ccc31)[C@H](c1ccccc1OCCO)N1[C@H](c3ccccc3)[C@H](c3ccccc3)OC(=O)[C@H]1[C@@H]2C(N)=O ?
stdout: -0.955 (inactive)

stdin: Okay, and CCCC=C(CCC)[C@@H](NS(=O)(=O)c1ccc(Cl)cc1)c1ccccc1 ?
stdout: -1 (inactive)

stdin: Field entry: CC(C)C[C@@H]1NC(=O)[C@@H]2C[C@H](C(=O)NCCCC[N+](C)(C)C)[C@H](c3ccc(O)cc3)N2C1=O
stdout: 0.581 (inactive)

stdin: How about CC(C)C[C@H]1NC(=O)[C@@]23C(=O)N[C@@H](Cc4ccccc4)C2[C@H](C)[C@@]2(C)O[C@H]2C3/C=C/C/C=C\CNC(=O)[C@@H]2CCCN2C1=O (some centres not stated) ?
stdout: -0.0699 (inactive)

====

# system: Dickkopf-related protein 1 (Homo sapiens)
# protocol-description: DKK1 binders on small-molecule microarrays, primary screen, biochemical, small-molecule microarray, 635 nm fluorescence scan (AID 1106);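 further: score merges emission near 667 nm with signal to noise over three replicate slides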
# conditions: DKK1 binding, higher = more signal
Label rule, in plain words: composite z-score of 0.4 and up is 1, under 0.4 is 0.

stdin: Tell me whether composite z-score is at least 0.4 here: C[C@H]1C2[C@H](Cc3ccccc3)NC(=O)[C@]23C(=O)NCC(=O)N2CCC[C@H]2C(=O)NC/C=C\C/C=C/C3[C@@H]2O[C@]12C (some centres undefined)
stdout: 0

stdin: Also CCOC(=O)C1=C(C(=O)OCC)N(S(=O)(=O)CC[Si](C)(C)C)[C@H](c2ccccc2)CC1 ?
stdout: 0

stdin: Follow-up item: C#CCN(C/C=C/c1ccccc1)[C@H](CO[Si](C)(C)C(C)(C)C)c1ccccc1
stdout: 0

stdin: // next record CC1CC/C=C\[C@H]2OC34C=CCN(CCN5CCOCC5)C(=O)[C@H]3N(CCCCCCO)C(=O)[C@@H]4C2C(=O)O1 (some centres undefined)
stdout: 0

stdin: Queued: COc1ccc(NN2C(C(O)c3ccc(OC)cc3)C=CC3C(=O)N(C4CCCCC4)C(=O)C32)cc1 (centres undefined)
stdout: 0

stdin: Moving on to the next compound: CCOC(=O)C1=CC[C@@H](c2ccc(F)cc2)N(S(=O)(=O)c2ccc(C)cc2)[C@H]1c1ccc([N+](=O)[O-])cc1
stdout: 0

stdin: COc1ccc([Si](C)(C)[C@H]2[C@H](CCn3cc([C@H](O)c4ccccc4)nn3)O[C@@]3(C(=O)N(c4ccccc4)c4ccccc43)[C@@H]2C)cc1 ?
stdout: 0

stdin: Would you kindly repeat that for CC=CC(O)C1C=CC2C(=O)N(C)C(=O)C2N1NC(=O)OC(C)(C)C (centres undefined) ?
stdout: 1

stdin: Then NCCCC[C@@H]1NC(=O)[C@H]2C[C@@H](C(=O)O)[C@@H](c3cccc(OCCO)c3)N2C1=O ?
stdout: 1

stdin: Queued: CCOC(=O)C1=CC[C@@H](c2ccccc2Cl)N(S(=O)(=O)c2ccc(C)cc2)[C@H]1c1cccc(OC)c1
stdout: 0

stdin: Cool, now C=CCOC(=O)[C@H]1[C@@H]2C(=O)O[C@@H](c3ccccc3)[C@@H](c3ccccc3)N2[C@@H](c2ccc(OCCOC(=O)[C@@H]3C[C@@H]4C(=O)N[C@@H](Cc5ccccc5)C(=O)N4[C@@H]3c3ccc(O)cc3)cc2)[C@]12C(=O)Nc1ccccc12
stdout: 1

stdin: Same for CN(C)CCCNC(=O)[C@@H]1c2ccccc2C(=O)N(C2Cc3ccccc3C2)[C@H]1c1ccc(CO)cc1
stdout: 0

stdin: What do we get for COCCOC(=O)N1C(=O)[C@@]2(c3cc(C#CCC(C(=O)OC)C(=O)OC)ccc31)[C@H](C(=O)N1CCCCCCC1)[C@H]1C(=O)O[C@H](c3ccccc3)[C@H](c3ccccc3)N1[C@@H]2c1ccccc1OCCO ?
stdout: 1
